- PROCEDURE_TEXT: yeast display, Sf9 membrane polyspecificity reagent, FACS + sequencing; frameworks hold sequencing errors
MEASURED_ATTRIBUTE: polyreactivity (PSR sort gate)

QVQLVESGGGLVQAGGSLRLSCAASGRTLGYYAKGWYRQAPGKERELVAAISRSGGSTYYADSVKGRFTISRDNAKNTVYLQMNSLKPEDTAVYYCAATYGPSRYRYDYWGQGTQVTVSS    high polyreactivity
QVQLVESGGGLVQAGGSLRLSCAASGFIFDDYARGWYRQAPGKERELVADIDYSGGSRYYADSVKGRFTISRDNAKNPVYLQMTSLKPEETAVYYGTAYYGILYYLLDYWGQGTQVTVSS    high polyreactivity
QVQLVESGGGLVQAGGSLRLSCATSGRTFWFYAMGWYRQAPGKERELVAAISSGGSTNYADSVKGRFTISRDNAKNTVYLQMNSLKPEVTAVYYCAKVGNIPYGTRYYSNRYDYWGQGTQVTVSS    low polyreactivity
QVQLVESGGVLVQAGGSLRISCAASGIIFSYYAMGWYRQAPGKERELVAAIYRRGTSTYYADSVKGRFTISRDNAKNTVYLQMNSLKPEDTAVYYCNKSPYYTVWSTRCNQFSRFYYWGQGTQVTVSS    high polyreactivity
QVQLVESGGGLVQAGGSLRLSCAASVLIIWLYTMGWYRQAPGKERELVAAIDWSGGSTYYADSVKGRFTMSRDIAKNTVYLQMNRLKPEDTAVYYCAADPEPSYRFDYGGQGTQVTVSS    low polyreactivity
QVQLVESGGGLVQAGGSLRLSCAASGRILAGYAMGWYRQAPGKERELVAAITRGGTTYYADSVKGRFTISRDNAKYTVYLQMNSLKPEDTAVVYTVSSAQYDYWGQGTQVTVSS    low polyreactivity
QVQLVESGGGLVQAGGSLRLSCAASGSTLKYYAMGWYRQAPGKERELVARITRSSGSTYYADSVKGRFTISRDNAKNTVFLHMNSLKPEDTAVYYCNKVYKSYYCGCYDWGQGTQVTVLS    high polyreactivity
QVQLVESGGGLVQAGGSLRLSSPASGYIISTYVMGWYRQAPGKERDLVAAITRSGGSTYYADSVKGRFTISRDNAKNNVYLQMNSLKPEDTAVYYCNAYLYLYGLSGRYDYWGQGTQVTVSS    high polyreactivity
QVQLVESGGGLVQAGGSLRLSCSASGIIFDSYVMGWYRQAPGKERELVAAISFRGGSTYYADSVKGRFTISRDNAKNTVYLQMNSLKPEDTAVYYCAAEGRGYTEYYWGQGTQVTVSS    high polyreactivity
QVQLVESGGGLVQAGGSLRLSCAASGRTFVHYTMGWYRQAPGKERELVATISTSGGSTSYADSVKGRFTISRDNAKNTVYVQMNSLKPEDTAVYYCAARWYFPDRVKYVYWGQGTQVTVSS    low polyreactivity

Query sequence follows.
Query string: GET /values?readout=polyreactivity (PSR sort gate)&item= QVQLVESGGGLVQAGGSLRLSCAASGRTLARNAMGWYRQAPGKERELVASINGRTTRTYYADSVKGRFTISRDNAKNTVYFQMNSLKPEDPAVYYCAADPPGYVYGKRYYWGQGTQVTVSS
Result string: high polyreactivity
